Reference for the values: patent US20230078764A1

For each entry below, report its IC50 value.
- target-of-assay: human SCD1 (Homo sapiens, UniProt O00767)
- Construct: expressed in transfected cells; host or cells: yeast strain with OLE1 deleted, plasmid-borne human SCD1 (selected in SD-Ura)
- Sequence (O00767 1-359): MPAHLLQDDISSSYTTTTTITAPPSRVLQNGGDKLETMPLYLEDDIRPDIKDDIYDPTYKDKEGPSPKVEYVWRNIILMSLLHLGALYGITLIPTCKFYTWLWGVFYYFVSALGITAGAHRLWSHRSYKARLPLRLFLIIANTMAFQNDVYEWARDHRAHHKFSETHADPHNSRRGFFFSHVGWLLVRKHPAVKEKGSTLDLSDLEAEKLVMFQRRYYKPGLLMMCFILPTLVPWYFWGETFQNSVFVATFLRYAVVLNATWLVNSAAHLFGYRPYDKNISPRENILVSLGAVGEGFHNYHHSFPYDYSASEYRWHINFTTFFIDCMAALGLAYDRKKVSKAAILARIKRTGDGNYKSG
- assay-remarks: Growth inhibition of yeast strain expressing human SCD1 as sole desaturase (OLE1 deleted), OD600 readout
- Format: cell-based
- conditions-used: yeast strain expressing human SCD1 as sole desaturase; growth (OD600) after 40 h at 30° C.; read-out: SCD1 IC50

Would you please look over these solved cases?
• CN1N=C(C(=O)Nc2ccc(CCc3cccc(Cl)c3)cn2)CCC1=O [Compound 296] = > 45 µM
• N#Cc1cc(F)cc(Cc2ccc(NC(=O)c3ccc(C#N)nc3)nc2)c1 [Compound 535] = > 45 µM
• CN1N=C(C(=O)Nc2ccc(Cc3cccc(Br)c3)cn2)CCC1=O [Example 27] = > 45 µM
• Cn1cc(C(=O)Nc2ccc(COc3cccc(Cl)c3)cn2)ccc1=O [Compound 263] = > 45 µM
• O=C(Nc1ccc(Cc2cccc(Cl)c2)cn1)c1cnc(Cl)c(F)c1 [Compound 319] = > 45 µM
• CN1N=C(C(=O)Nc2ccc(Cc3cc(Cl)cc(C#N)c3)cn2)CCC1=O [Compound 51] = > 45 µM
• Cn1cc(C(=O)N[C@H]2CC[C@@H](Cc3cccc(Cl)c3)CC2)ccc1=O [Compound 465] = > 45 µM
• CN1N=C(C(=O)Nc2nnc(Cc3cccc(Cl)c3)[nH]2)CCC1=O [Compound 407] = > 45 µM
• CN1N=C(NC(=O)c2ccc(Cc3ccc(F)c(F)c3)cn2)CCC1=O [Compound 87] = > 45 µM
• O=C(Nc1ncc(Cc2cccc(F)c2)s1)C1=NN(CCF)C(=O)CC1 [Compound 386] = > 45 µM

Parameters: items (list). Returns: IC50 for each item.
1. CN1N=C(C(=O)Nc2ccc(CN3CCC(C)(C)CC3)cn2)CCC1=O [Compound 412]
2. CNCc1ccc(C(=O)Nc2ccc(Cc3cccc(Cl)c3)cn2)cn1 [Compound 289]
3. O=C(Nc1ccc(Cc2ccc(F)c(F)c2)cn1)c1ccc(Cl)nn1 [Compound 585]

["> 45 µM", "> 45 µM", "> 45 µM"]

// for each compound below, give its IC50
1. CN1N=C(C(=O)Nc2ccc(Cc3cc(F)cc(F)c3)cn2)CCC1=O [Example 22]
2. Cn1nc(C(=O)Nc2ccc(CC3CCCCC3)cn2)cc1O [Compound 476]
3. CC1CC(C(=O)Nc2ccc(Cc3cccc(F)c3)cn2)=NN(C)C1=O (stereo not drawn) [Compound 118]
4. CN1N=C(C(=O)Nc2ccc(CC3CCCCC3)nn2)CCC1=O [Compound 198]
5. N#Cc1nc(C(=O)Nc2ccc(Cc3cc(F)cc(F)c3)cn2)co1 [Compound 683]
6. Cn1nc(C(=O)Nc2ccc(Cc3ccc(F)cc3F)cn2)ccc1=O [Compound 537]
7. CC(O)c1ccc(C(=O)Nc2ccc(Cc3ccc(F)c(F)c3)cn2)nc1 (stereo not drawn) [Compound 511]
8. Cn1nc(C(=O)Nc2nnc(Cc3cccc(F)c3)s2)ccc1=O [Compound 345]

1: > 45 µM; 2: > 45 µM; 3: > 45 µM; 4: > 45 µM; 5: 8.1 µM; 6: 17 µM; 7: 0.143 µM; 8: 3.95 µM

Lab note: each compound below needs its IC50 filled in.
1. CN1N=C(C(=O)Nc2ccc(Oc3cccc(Cl)c3)cc2)CCC1=O [Compound 159]
2. N#Cc1cc(F)cc(Cc2ccc(NC(=O)c3cnc(Cl)cn3)nc2)c1 [Compound 646]
3. Cn1nc(C(=O)Nc2nc(C(N)=O)c(Cc3cccc(F)c3)s2)ccc1=O [Compound 430]

["> 45 µM", "> 45 µM", "> 45 µM"]
